Target: T1, human IL-13 (human, UniProt P35225 35-146, biotinylated on the Biacore chip)
T1 construct: also called hIL-13; recombinant human IL-13
T1 sequence (P35225 35-146 limits assumed): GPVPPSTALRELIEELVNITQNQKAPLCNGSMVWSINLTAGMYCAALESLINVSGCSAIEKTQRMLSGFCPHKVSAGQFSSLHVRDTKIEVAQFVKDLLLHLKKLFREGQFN
Assay: Dom10 RBA (IL-13 sandwich ELISA per paragraph 471)
pEC50: −log10 of the molar value.
measured_parameter: pEC50

binder	experimental_value
DOM10-236-ASTKGPS-DOM9-155-78 (bispecific antibody, in-line fusion, from pDOM5) EVQLLESGGGLVQPGGSLRLSCAASGFTFPKYDMMWVRQAPGKGLEWVSSIDHLGVNTYYADSVKGRFTISRDNSKNTLYLQMNSLRAEDTAVYYCAKESDWPSFDYWGQGTLVTVSSASTKGPSDIQMTQSPSSLSASVGDRVTITCRASRHIGDWLHWYQQKPGKAPKLLIAWASTLDSGVPSRFSGSGSGTDFTLTISSLQPEDFATYYCLQEGWGPPTFGQGTKVEIKR	6.43
DOM10-215-TVAAPS-DOM9-155-78 (bispecific antibody, in-line fusion, from pDOM5) DIQMTQSPSSLSASVGDRVTITCRASQNIFADLNWYQQKPGKAPKLLIYMGSRLQSGVPSRFSGSGSGTDFTLTISSLQPEDFATYYCQQDYKFPLTFGQGTKVEIKRTVAAPSDIQMTQSPSSLSASVGDRVTITCRASRHIGDWLHWYQQKPGKAPKLLIAWASTLDSGVPSRFSGSGSGTDFTLTISSLQPEDFATYYCLQEGWGPPTFGQGTKVEIKR	7.97
DOM9-112-210-ASTKGPS-DOM10-224 (bispecific antibody, in-line fusion, from pDOM5) EVQLLESGGGLVQPGGSLRLSCAASGFTFRNFGMGWVRQAPGKGLEWVSWIISSGTETYYADSVKGRFTISRDNSKNTLYLQMNSLRAEDTAVYYCAKSLGRFDYWGQGTLVTVSSASTKGPSDIQMTQSPSSLSASVGDRVTITCRASPNIAVDLAWYQQKPGKAPKLLIRGVSRLQSGVPSRFSGSGSGTDFTLTISSLQPEDFATYYCRQGAMGSYTFGQGTKVEIKR	5.34
DOM10-213-TVAAPS-DOM9-155-78 (bispecific antibody, in-line fusion, from pDOM5) DIQMTQSPSSLSASVGDRVTITCRASQAIPWGLNWYQQKPGKAPKLLIYDVSSLQSGVPSRFSGSGSGTDFTLTISSLQPEDFATYYCQQDIHIPMTFGQGTKVEIKRTVAAPSDIQMTQSPSSLSASVGDRVTITCRASRHIGDWLHWYQQKPGKAPKLLIAWASTLDSGVPSRFSGSGSGTDFTLTISSLQPEDFATYYCLQEGWGPPTFGQGTKVEIKR	7.21
